Recorded self-cleavage kobs at 2500 uM GlcN6P, one value per entry.
B1: glmS ribozyme (parent)
chain: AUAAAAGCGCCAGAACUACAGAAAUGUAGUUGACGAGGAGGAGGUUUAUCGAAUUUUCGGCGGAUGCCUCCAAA

- Variants of: B1
- measurement.protocol: self-cleavage kobs at 2500 uM GlcN6P; higher = faster cleavage; RNA array
- recorded.conditions: with glucosamine-6-phosphate
This sample holds only a part of the variants without activity.

Fill in: self-cleavage kobs at 2500 uM GlcN6P of A1U A15G A36U is ___ < 1e-05 s⁻¹

Now give it for C8G A33U U56G G59U too. < 1e-05 s⁻¹

Continue with U46G U55G G60C < 1e-05 s⁻¹

Record: G41U C58A A64G U69A < 1e-05 s⁻¹

Subsequent entry: A15G C34A G63A < 1e-05 s⁻¹

Please answer likewise for A15U A33C A39G C71G < 1e-05 s⁻¹

Ok, now G35C A39U U49G C50G < 1e-05 s⁻¹

Query G51A A64C next < 1e-05 s⁻¹

What would you report for A33C G41C C67G ? < 1e-05 s⁻¹

Also need C8A G13C A36G U56G C70U , thanks. < 1e-05 s⁻¹

Further cases:
# get_value(readout='self-cleavage kobs at 2500 uM GlcN6P', item= C10G A14C A48C C50U ) < 1e-05 s⁻¹

Same question, G40U A52G this time 0.000112 s⁻¹
